- RUN_DESCRIPTION: MTT cytotoxicity assay, HepG2
- Format: cell-based
- MEASUREMENT_SETUP: human, HepG2 cells, HepG2, 72 h, read-out: CC50 HepG2 Hepatocytes
Consider the following compounds and their measured CC50 at 72 h readings.
Quick reminder: number only, in µM, skip the unit.

Use these answered entries as a reference point.
COMPOUND	PROPERTY	READING_UNIT	RESULT_VALUE
CSc1ccc(C(c2c(C)nn(-c3ccccc3)c2O)c2c(C)nn(-c3ccccc3)c2O)cc1 [Compound 2u]	CC50 at 72 h	µM	21
Cc1nn(-c2ccccc2)c(O)c1C(c1ccccc1[N+](=O)[O-])c1c(C)nn(-c2ccccc2)c1O [Compound 2c]	CC50 at 72 h	µM	26

Qu. Identify the reported CC50 at 72 h for the following entry. Cc1nn(-c2ccccc2)c(O)c1C(c1cccc(F)c1)c1c(C)nn(-c2ccccc2)c1O [Compound 2t]
Ans. 20

Qu. Give the reported value of CC50 at 72 h for this record: Cc1nn(-c2ccccc2)c(O)c1C(c1ccc(F)cc1)c1c(C)nn(-c2ccccc2)c1O [Compound 2p]
Ans. 13

Qu. Please give the documented CC50 at 72 h of Cc1nn(-c2ccccc2)c(O)c1C(c1cc(C(F)(F)F)cc(C(F)(F)F)c1)c1c(C)nn(-c2ccccc2)c1O [Compound 2x]
Ans. 30

Qu. Identify the reported CC50 at 72 h for the following entry. Cc1nn(-c2ccccc2)c(O)c1C(c1ccccc1C(F)(F)F)c1c(C)nn(-c2ccccc2)c1O [Compound 2v]
Ans. 21

Qu. Answer with the recorded CC50 at 72 h of COC(=O)c1ccc(C(c2c(C)nn(-c3ccccc3)c2O)c2c(C)nn(-c3ccccc3)c2O)cc1 [Compound 2q] only.
Ans. 29

Qu. Complete the entry with CC50 at 72 h for Cc1nn(-c2ccccc2)c(O)c1C(c1ccc(C(F)(F)F)cc1)c1c(C)nn(-c2ccccc2)c1O [Compound 2r]
Ans. 20
